# Target Entity: recombinant PI3Kδ (p110δ-p85α) (Mus musculus, UniProt O35904)
# Sequence (O35904 whole entry): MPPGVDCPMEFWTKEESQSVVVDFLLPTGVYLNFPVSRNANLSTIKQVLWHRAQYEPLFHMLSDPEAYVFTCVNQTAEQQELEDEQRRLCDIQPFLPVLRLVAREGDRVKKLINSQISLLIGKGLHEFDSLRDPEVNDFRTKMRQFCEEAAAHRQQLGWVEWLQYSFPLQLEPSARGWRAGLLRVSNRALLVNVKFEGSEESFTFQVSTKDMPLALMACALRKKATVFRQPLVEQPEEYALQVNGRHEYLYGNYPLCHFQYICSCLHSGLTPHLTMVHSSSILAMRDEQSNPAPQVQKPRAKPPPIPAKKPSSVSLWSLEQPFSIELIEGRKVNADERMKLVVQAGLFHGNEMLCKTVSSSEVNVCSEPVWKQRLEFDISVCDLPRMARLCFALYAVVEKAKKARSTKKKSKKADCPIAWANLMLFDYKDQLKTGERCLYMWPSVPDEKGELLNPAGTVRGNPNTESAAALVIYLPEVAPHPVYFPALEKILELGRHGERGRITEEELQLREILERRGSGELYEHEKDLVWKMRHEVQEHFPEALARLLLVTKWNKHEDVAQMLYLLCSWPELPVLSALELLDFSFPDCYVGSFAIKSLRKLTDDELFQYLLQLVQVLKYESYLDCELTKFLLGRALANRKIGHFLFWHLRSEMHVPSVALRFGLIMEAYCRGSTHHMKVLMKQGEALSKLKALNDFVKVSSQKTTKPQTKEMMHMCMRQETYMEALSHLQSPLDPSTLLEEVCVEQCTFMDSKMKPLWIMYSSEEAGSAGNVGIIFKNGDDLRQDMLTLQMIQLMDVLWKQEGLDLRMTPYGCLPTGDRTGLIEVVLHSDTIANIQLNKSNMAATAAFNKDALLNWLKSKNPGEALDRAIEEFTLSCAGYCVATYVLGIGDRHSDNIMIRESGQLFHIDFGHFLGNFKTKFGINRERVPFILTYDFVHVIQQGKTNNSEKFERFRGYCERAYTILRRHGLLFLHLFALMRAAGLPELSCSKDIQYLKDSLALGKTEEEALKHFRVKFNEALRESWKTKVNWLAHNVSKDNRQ
# Sequence (P27986 whole entry partner): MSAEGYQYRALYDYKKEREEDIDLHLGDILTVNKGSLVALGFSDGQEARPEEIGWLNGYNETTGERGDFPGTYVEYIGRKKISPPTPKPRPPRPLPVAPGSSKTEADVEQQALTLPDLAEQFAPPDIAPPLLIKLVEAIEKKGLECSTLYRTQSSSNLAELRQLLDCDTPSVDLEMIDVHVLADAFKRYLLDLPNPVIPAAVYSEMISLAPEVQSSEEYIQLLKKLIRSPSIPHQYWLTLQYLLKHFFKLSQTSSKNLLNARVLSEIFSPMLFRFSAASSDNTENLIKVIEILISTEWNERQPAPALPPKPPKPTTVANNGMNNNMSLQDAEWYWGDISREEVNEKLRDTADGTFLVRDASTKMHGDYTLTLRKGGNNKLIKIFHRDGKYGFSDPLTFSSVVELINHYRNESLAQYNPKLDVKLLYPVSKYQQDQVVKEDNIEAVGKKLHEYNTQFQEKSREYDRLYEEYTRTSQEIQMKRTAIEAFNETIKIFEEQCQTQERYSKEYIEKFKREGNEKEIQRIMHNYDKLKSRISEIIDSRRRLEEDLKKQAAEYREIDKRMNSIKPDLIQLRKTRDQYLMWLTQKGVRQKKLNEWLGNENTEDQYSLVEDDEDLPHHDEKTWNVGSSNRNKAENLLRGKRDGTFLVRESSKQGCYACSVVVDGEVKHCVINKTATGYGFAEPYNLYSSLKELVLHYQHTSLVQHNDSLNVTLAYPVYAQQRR
# Assay Name: Competition of idelalisib with ATP (HTRF kinetic assay)
# Conditions Used: read-out: Ki (inhibition constant)
Readout Label: Ki (nM)
One number for each entry, in nM.

## Task Given the compound CC[C@H](Nc1ncnc2[nH]cnc12)c1nc2cccc(F)c2c(=O)n1-c1ccccc1 , what is its reported Ki?
## Result 1.5

###

# Target Entity: PI3Kδ (murine p110δ-p85α) (Mus musculus)
# Sequence (O35904 whole entry): as the sequence (O35904 whole entry) above
# Sequence (P27986 whole entry partner): as the sequence (P27986 whole entry partner) above
Readout Label: pIC50
Numbers only, as −log10 of the molar value.

## Task Given the molecule CC[C@H](Nc1ncnc2[nH]cnc12)c1nc2cccc(F)c2c(=O)n1-c1ccccc1 [Idelalisib] , what is its reported pIC50?
## Result 7.72
